B1: LINE1-full (parent)
chain: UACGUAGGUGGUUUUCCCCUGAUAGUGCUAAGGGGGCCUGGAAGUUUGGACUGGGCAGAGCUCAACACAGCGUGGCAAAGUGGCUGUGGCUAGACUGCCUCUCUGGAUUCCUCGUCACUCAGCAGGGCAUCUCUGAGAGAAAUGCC

- Variants of: B1
- testSummary: self-cleavage, relative activity (ratio to wild type); higher = more cleavage; in vitro, sequencing; the parent is a self-cleaving ribozyme
Listed here: items and their measured self-cleavage.
Lab note: jot the number down without any unit.

Worked examples follow.
variant: U46C U112C
self-cleavage: 1.78

variant: U13A U115C
self-cleavage: 1.56

variant: G106A G127U
self-cleavage: 1.49

variant: U85A A124C
self-cleavage: 0.08

Request: Look up self-cleavage for this variant: A2U A43G
Response: 1.07
